Test summary: Cardiovascular change (HR, BP) at equi-efficacious dose in dogs
Format: in vivo
Test settings: Table V, dog, at equi-efficacious dose
Please respond with reported BP % for every item in the list.
Numbers only, in %.

Reference set, count: 4
CC(=O)O[C@H]1C[C@@H]2CC[C@@H]3[C@H](CC[C@@]4(C)[C@H]3C[C@H]([N+]3(C)CCCCC3)[C@@H]4OC(C)=O)[C@@]2(C)C[C@@H]1N1CCCCC1 :: 2.3
COc1cc2c3cc1Oc1cc(ccc1O)C[C@@H]1c4c(cc(OC)c(O)c4Oc4ccc(cc4)C[C@@H]3N(C)CC2)CC[N+]1(C)C :: -25.8
C[N+](C)(C)CCOC(=O)CCC(=O)OCC[N+](C)(C)C :: 25.7
CC(=O)O[C@H]1C[C@@H]2CC[C@@H]3[C@H](CC[C@@]4(C)[C@H]3C[C@H]([N+]3(C)CCCCC3)[C@@H]4OC(C)=O)[C@@]2(C)C[C@@H]1[N+]1(C)CCCCC1 :: -1.8

As a next step, examine the compound that follows.
stdin: Can you look up the measured BP % of COc1cc2c(cc1OC)C(Cc1cc(OC)c(OC)c(OC)c1)[N+](C)(CCCOC(=O)CCC=CCCC(=O)OCCC[N+]1(C)CCc3cc(OC)c(OC)cc3C1Cc1cc(OC)c(OC)c(OC)c1)CC2 (centres unmarked) for me?
stdout: -3.1

====

Test summary: Cardiovascular change (HR, BP) at equi-efficacious dose in dogs
Type: in vivo
Test settings: Table V, dog, at equi-efficacious dose
// classify: if (HR % < 0.7%) t else f

# example entries with known answers
COc1cc2c3cc1Oc1cc(ccc1O)C[C@@H]1c4c(cc(OC)c(O)c4Oc4ccc(cc4)C[C@@H]3N(C)CC2)CC[N+]1(C)C :: f
C[N+](C)(C)CCOC(=O)CCC(=O)OCC[N+](C)(C)C :: f
CC(=O)O[C@H]1C[C@@H]2CC[C@@H]3[C@H](CC[C@@]4(C)[C@H]3C[C@H]([N+]3(C)CCCCC3)[C@@H]4OC(C)=O)[C@@]2(C)C[C@@H]1[N+]1(C)CCCCC1 :: t

stdin: Consider CC(=O)O[C@H]1C[C@@H]2CC[C@@H]3[C@H](CC[C@@]4(C)[C@H]3C[C@H]([N+]3(C)CCCCC3)[C@@H]4OC(C)=O)[C@@]2(C)C[C@@H]1N1CCCCC1 . Does its HR % lie strictly below 0.7%?
stdout: f

====

Tested on: paw twitch
Test summary: Twitch depression (muscle relaxant effect) in anesthetized rabbits; rabbit paw twitch
Assay type: in vivo, New Zealand White rabbits
Test settings: Table IV, rabbit, at equi-efficacious dose
Procedure: [The procedure below names another organism; the source lists this organism under the same test.] Mongrel dogs were injected with 50 mg/kg of pentobarbital until the onset of anesthesia as determined by the eyeblink reflex test. The injectable solutions prepared above were administered intravenously to the anesthesized mongrel dogs and measurements were made of the muscle relaxant effect including maximum twitch depression, onset, duration and recovery time in a clinically known manner. Each of the subjects were compared with a control animal receiving an injection of distilled water. […]
Please respond with reported Duration (DURAT.) for every item in the list.
Give bare numbers, in min.

Reference set, count: 2
CC(=O)O[C@H]1C[C@@H]2CC[C@@H]3[C@H](CC[C@@]4(C)[C@H]3C[C@H]([N+]3(C)CCCCC3)[C@@H]4OC(C)=O)[C@@]2(C)C[C@@H]1N1CCCCC1 :: 16.8
COc1cc2c(cc1OC)C(Cc1cc(OC)c(OC)c(OC)c1)[N+](C)(CCCOC(=O)CCC=CCCC(=O)OCCC[N+]1(C)CCc3cc(OC)c(OC)cc3C1Cc1cc(OC)c(OC)c(OC)c1)CC2 (stereo not drawn) :: 8.7

As a next step, examine the compound that follows.
stdin: Could you share what Duration (DURAT.) was measured for COc1cc(CC2c3c(cc(OC)c(OC)c3OC)CC[N+]2(C)CCCOC(=O)CCC(=O)OCCC[N+]2(C)CCc3cc(OC)c(OC)c(OC)c3C2Cc2cc(OC)c(OC)c(OC)c2)cc(OC)c1OC (stereo not drawn) , tested on paw twitch?
stdout: 167.0

====

Please respond with reported Recovery (RECOV.) for every item in the list.
System: paw twitch
Test summary: Twitch depression (muscle relaxant effect) in anesthetized dogs; dog paw twitch
Assay type: in vivo, mongrel dogs
Test settings: Table V, dog, at equi-efficacious dose
Numbers only, in min.

Give Recovery (RECOV.) for each listed item.
1. CC(=O)O[C@H]1C[C@@H]2CC[C@@H]3[C@H](CC[C@@]4(C)[C@H]3C[C@H]([N+]3(C)CCCCC3)[C@@H]4OC(C)=O)[C@@]2(C)C[C@@H]1N1CCCCC1 [vecuronium]
2. CC(=O)O[C@H]1C[C@@H]2CC[C@@H]3[C@H](CC[C@@]4(C)[C@H]3C[C@H]([N+]3(C)CCCCC3)[C@@H]4OC(C)=O)[C@@]2(C)C[C@@H]1[N+]1(C)CCCCC1 [pancuronium]
3. C[C@]12CC[C@@H]([N+]3(C)CCCC3)C[C@@H]1CC[C@@H]1[C@@H]2CC[C@@]2(C)[C@H]1CCC[N+]2(C)C.[Br-].[Br-] [RGH-4201]

stdout:
1. 21.8
2. 35.6
3. 22.0

====

Test system: paw twitch
Test summary: Twitch depression (muscle relaxant effect) in anesthetized rabbits; rabbit paw twitch
Type: in vivo, New Zealand White rabbits
Test settings: Table VII, rabbit paw twitch, at indicated dose
Method: [The procedure below names another organism; the source lists this organism under the same test.] Mongrel dogs were injected with 50 mg/kg of pentobarbital until the onset of anesthesia as determined by the eyeblink reflex test. The injectable solutions prepared above were administered intravenously to the anesthesized mongrel dogs and measurements were made of the muscle relaxant effect including maximum twitch depression, onset, duration and recovery time in a clinically known manner. Each of the subjects were compared with a control animal receiving an injection of distilled water. […]
Measurement label: Onset (s)
Numbers only, in s.

CC1(C)CC(N2CCCC3(C2)OCC2(CO3)COC3(CCCN(C4=CC(=[N+]5CCCC6(CC5)OCCO6)CC(C)(C)C4)C3)OC2)=CC(=[N+]2CCCC3(CC2)OCCO3)C1 (centres unmarked) :: 36.5

Give Onset for each listed item.
1. COC1C[N+](=C2C=C(N3CCCC4(C3)OCC3(CO4)COC4(CCCN(C5=CC(=[N+]6CCC(OC)(OC)C(OC)C6)CC(C)(C)C5)C4)OC3)CC(C)(C)C2)CCC1(OC)OC (centres unmarked)
2. CC[N+](CCC1OCCO1)=C1C=C(N2CCCC3(C2)OCC2(CO3)COC3(CCCN(C4=CC(=[N+](CC)CCC5OCCO5)CC(C)(C)C4)C3)OC2)CC(C)(C)C1 (centres unmarked)
3. CC[N+](CC1CC1)=C1C=C(N2CCCC3(C2)OCC2(CO3)COC3(CCCN(C4=CC(=[N+](CC)CC5CC5)CC(C)(C)C4)C3)OC2)CC(C)(C)C1 (centres unmarked)
4. CC1CCC[N+](=C2C=C(N3CCCC4(C3)OCC3(CO4)COC4(CCCN(C5=CC(=[N+]6CCCC(C)C6)CC(C)(C)C5)C4)OC3)CC(C)(C)C2)C1 (centres unmarked)

stdout:
44.4
33.3
39.3
44.9

====

System: paw twitch
Test summary: Twitch depression (muscle relaxant effect) in anesthetized dogs; dog paw twitch
Type: in vivo, mongrel dogs
Test settings: Table V, dog, at equi-efficacious dose
Measurement label: Duration (DURAT.) (min)
Give bare numbers, in min.

Reference set, count: 5
COc1cc2c(cc1OC)C(Cc1cc(OC)c(OC)c(OC)c1)[N+](C)(CCCOC(=O)CCC=CCCC(=O)OCCC[N+]1(C)CCc3cc(OC)c(OC)cc3C1Cc1cc(OC)c(OC)c(OC)c1)CC2 (stereo not drawn) [BW1090] :: 75.0
COc1ccc(CC2c3cc(OC)c(OC)cc3CC[N+]2(C)CCC(=O)OCCCCCOC(=O)CC[N+]2(C)CCc3cc(OC)c(OC)cc3C2Cc2ccc(OC)c(OC)c2)cc1OC (stereo not drawn) [atracurium] :: 27.9
CC(=O)O[C@H]1C[C@@H]2CC[C@@H]3[C@H](CC[C@@]4(C)[C@H]3C[C@H]([N+]3(C)CCCCC3)[C@@H]4OC(C)=O)[C@@]2(C)C[C@@H]1N1CCCCC1 [vecuronium] :: 26.6
CC(=O)O[C@H]1C[C@@H]2CC[C@@H]3[C@H](CC[C@@]4(C)[C@H]3C[C@H]([N+]3(C)CCCCC3)[C@@H]4OC(C)=O)[C@@]2(C)C[C@@H]1[N+]1(C)CCCCC1 [pancuronium] :: 45.7
C[C@]12CC[C@@H]([N+]3(C)CCCC3)C[C@@H]1CC[C@@H]1[C@@H]2CC[C@@]2(C)[C@H]1CCC[N+]2(C)C.[Br-].[Br-] [RGH-4201] :: 28.3

stdin: Can you look up the measured Duration (DURAT.) of COc1cc2c3cc1Oc1cc(ccc1O)C[C@@H]1c4c(cc(OC)c(O)c4Oc4ccc(cc4)C[C@@H]3N(C)CC2)CC[N+]1(C)C [d-tubocurarine] for me?
stdout: 60.0

This collection of values is drawn from patent US4863918A.
